- assayed.system: SARS-CoV-2 Spike RBD-His Tag, Sino Biological (SARS-CoV-2)
assay.readout: xmid (log10)
The response must contain the number and no unit.

vhh_tstrep_sars2_pjl1_L_129 (VHH) VHH: QVQLQESGGGLVQAGGSLRLSCAASGRTFSEYAMGWFRQAPGKEREFVATISWSGGATYHTTSVKGRFTISRDNAKNTVYLQMNSLKPDDTAVYYCAAAGLGTVVSEWDYDYDYWGQGTQVTVSS :: -1.34

Next binder, xmid (log10) to be filled in.
Asked: Could you share which xmid (log10) value was measured for vhh_tstrep_sars2_pjl1_L_121 (VHH) VHH: QVQLQESGGGLVQAGGSLRLSCAASGRTFSEYAMGWFRQAPGKEREFVATISWSGWATYHTDSVKGRFTISRDNAKNTVYLQMNSLKPDDTAVYYCAAAGLGTVVSEWDYDYDYWGQGTQVTVSS ?
Given back: -0.224
